- TEST DESCRIPTION: Protein binding in CD1 mouse plasma at 10 uM incubated for 4 hrs under shaking condition by LC-MS/MS analysis
- Format: ADME, cell-free
- CONDITION DETAILS: read-out: PPB (converted)
Measured fraction unbound at 4 h, 10 µM, listed per entry.
// print number alone

> print(dat)
                                   compound               recorded.endpoint  value
1  Cc1c(N2CC3CC3(N)C2)c(F)cc2c(CN)c(F)c(=O)n(C3CC3)c12 (stereo not drawn)  fraction unbound at 4 h, 10 µM   0.68
2  Cc1c(N2CC[C@@H]([C@H](C)N)C2)c(F)cc2ccc(=O)n(C3CC3)c12  fraction unbound at 4 h, 10 µM   0.19

# fraction unbound at 4 h, 10 µM lookup, item Cc1c(N2CC[C@@H]([C@H](C)N)C2)c(F)cc2c(CN)cc(=O)n(C3CC3)c12
0.44
